system: adjuvant induced arthritis; assay: adjuvant induced arthritis in rats (Freund's adjuvant, injected right hind paw; chronic inflammation with joint destruction); type: in vivo, royal Hart, Wistar strain rats; details: oral, 50 mg./kg. of body weight, once daily days 0-13; day 14
Reported values of % Inhibition of Swelling (primary lesion) for individual entries
experimental-readout: % Inhibition of Swelling (primary lesion) (%)

{"compound": "N#CCC(=O)c1ccccc1 [Benzoylacetonitrile, benzoylacetonitrile]", "quantitative-readout": 51}
{"compound": "N#CCC(=O)c1ccc(F)cc1 [p-Fluorobenzoylacetonitrile, p-fluorobenzoylacetonitrile]", "quantitative-readout": 56}
{"compound": "N#CCC(=O)c1cccc(F)c1 [m-Fluorobenzoylacetonitrile, m-fluorobenzoylacetonitrile]", "quantitative-readout": 40}
{"compound": "N#CCC(=O)c1ccccc1F [o-Fluorobenzoylacetonitrile, o-fluorobenzoylacetonitrile]", "quantitative-readout": 63}
